Here, each record is paired with measured melting point data.

Consider the reported melting point for these compounds:
CCOC(=O)c1c(C)cc2c(=O)n(-c3cccc(Cl)c3)c(C)nc2c1C ... 150 to 152 °C
CC12CC=C3c4ccc(O)cc4CCC3(C=C(F)F)C1CCC2O (stereo not given) ... 103 to 106 °C
COc1cccc2c(=O)c(C(N)=O)c(N)oc12 ... 302 °C

melting point recorded for this compound, CC1c2cc(O)ccc2-c2c1cc1cc(O)ccc1c2Cl (stereo not given) , is 215 to 220 °C

Form: compound = COC(=O)c1nc(OC)nc(OC)c1Cl ; melting point = 98 to 100 °C

Memo: Cc1ccc(S(=O)(=O)C(CCCCCc2cccc(C(F)(F)F)c2)C(=O)O)cc1 (stereo not given) , reported melting point: 62 °C

# melting point (compound: O=C1c2ccccc2S(=O)CC1(CO)CO (stereo not given) ) is 108 to 111 °C

// Cn1cc(OS(C)(=O)=O)c(=O)c2ccc(S(C)=O)cc21 (stereo not given) : melting point value = 248 °C

Measured melting point of O=S(=O)(N[C@H](CO)C(CC(F)(F)F)CC(F)(F)F)c1ccc(Cl)cc1 : 186 to 187 °C

Entry CC(C(=O)O)c1c(Sc2ccccc2)c2cc(F)ccc2n1Cc1ccc(Cl)cc1 (stereo not given) — recorded melting point = 80 to 82 °C

The recorded melting point for entry CC(=O)Nc1ccc(Cl)cc1C(=O)c1c(F)cccc1F equals 106 to 116 °C

The measured melting point associated with Nn1c2c(c3ccccc3c1=O)C(=O)c1ccccc1-2 reads 272 to 274 °C

So for CC1(C)Cc2cc(Cl)ccc2C=[N+]1[O-] , the logged melting point turned out to be 64.5 to 66.5 °C

###

# melting point per entry

# annotated cases, reported melting point shown
O=C(O)C(CC1CCCC1)c1ccc(-c2ccncc2)cc1 (configuration not stated) ... 118 to 121 °C
O=C1CCC(=O)N1CCSc1ccc(O)cc1 ... 114 to 122 °C
CC(C)(C)NC(=O)c1nn(-c2ccc(F)cc2)c2c1C1CCC2CC1 ... 190 to 193 °C
COc1ccc(Cn2nnnc2S(=O)(=O)c2ccc(C)cc2)cc1 ... 125 to 126 °C
Cc1cccc(C(=O)O)c1OC1CCOC1=O (configuration not stated) ... 129 to 131 °C

Next molecule, please.
For this molecule ( CCOC(=O)c1cnc(Nc2cc(OC)c(OC)c(OC)c2)nc1-c1ccccc1 ), measured melting point is 64 to 65 °C

###

Listing of entries alongside the reported melting point.

Example entries and their recorded answers appear below.
COC(=O)c1nn(-c2ccccc2F)cc(OC)c1=O ... 155 to 157 °C
COc1c(F)c(C)c(F)c(OC)c1CO ... 80 to 81 °C
CNc1cc(NC)nc(NC)n1 ... 215 °C
COc1ccc(COc2ccc(C(=O)NC[C@@H](C(=O)NO)N3CCN(S(C)(=O)=O)CC3)cc2)cc1 ... 148 °C
CC[C@@H](c1ccccc1)N(Cc1ccc(C(=O)OC)cc1OC)S(=O)(=O)c1ccc(Cl)cc1 ... 108 to 110 °C
C=CCNc1nc(-c2ccccc2)ncc1C(=O)OCC ... 49 to 54 °C
Cc1nn(-c2ccc(C#N)c(Cl)c2)c(C)c1Cc1ccc(C(=O)N2CCC(O)CC2)cc1 ... 153 to 154 °C
CCCCCCCCCCCCc1ccc(N)c([N+](=O)[O-])c1 ... 69 to 71 °C
CN(CCOCCO)S(=O)(=O)c1ccc(NC=C2C(=O)Nc3ccc4ncsc4c32)cc1 ... 165 °C

Could you now consider this next compound?
get_value(item= CN1C(=O)CC[C@]2(C)c3ccc(C=Cc4ccc5ccccc5n4)cc3CC[C@@H]12 , readout=melting point) returns 233 to 236 °C

###

# melting point per entry

Worked examples follow.
Cn1cc(C(=O)O)c(=O)c2cc3cc(F)c(N4CCN(O)CC4)c(F)c3nc21 ... 285 to 288 °C
OCCc1ccc(Oc2cc(C(F)(F)F)ccn2)cc1 ... 78 to 79 °C
NC(CF)(Cc1cccc(O)c1)C(=O)O (centres undefined) ... 227 °C
CC(C)Cc1c(Cl)sc2[nH]c(=O)c(=O)[nH]c12 ... > 270 °C
CCOC(=O)c1cc2cc(-c3ccc(OC(F)(F)F)cc3)ccc2n1Cc1ccc(C)cc1 ... 77 to 78 °C

Data point: O=C(CCCN1CCN(c2ccccc2Cl)CC1)N1CCc2ccccc21 ; melting point = 119 to 121 °C

The compound CC1CCCN1CCCN1CCN(CCN2CCCC2C)C1=C(C#N)C#N (centres undefined) showed melting point equal to 69 to 71 °C

Consider COc1cc(N2CCC(Br)C2=O)ccc1Cl (centres undefined) . Its measured melting point is 113 to 115 °C

###

melting point overview

Cc1c(Br)cc(C(C)(C)C)c(O)c1C1=Nc2cc(Cl)ccc2S(=O)(=O)N1 ... 270 to 271 °C

The reported melting point of the molecule O=C(O)C(=O)CC(=O)c1cn(Cc2ccccc2)c2ccccc2c1=O was 141 to 142 °C

Measured melting point, Cc1c(C(=O)Nc2ccc(Cl)c([N+](=O)[O-])c2)cnn1-c1ccc(C(F)(F)F)cc1 : 206 to 208 °C

For this molecule ( CNC(=O)c1ccccc1Sc1ccc(F)cc1[N+](=O)[O-] ), measured melting point is 111 to 113 °C

###

Entries and their melting point values follow.

The compound C#CCN1C(=O)c2ccccc2C1OC (configuration not stated) showed melting point equal to 85 to 87 °C

# melting point of O=c1c2c[nH]c3c(c-2nn1-c1ccc(Cl)cc1)CCC3 = > 350 °C

The value of melting point measured for the compound CC(C)Nc1c(-c2ccc(S(C)(=O)=O)cc2)cnn(Cc2ccccc2)c1=O turned out to be 146 to 147 °C

Noted for CC(=O)c1ccc2c(c1)Sc1ccccc1O2 : its melting point reads 112 °C

Consider COc1ccc(CCNC(=S)N2CCN(c3ncnc4cc(OC)c(OC)cc34)CC2)cc1OC . Its measured melting point is 98 to 100 °C

###

readout.name: melting point

Worked examples follow.
O=C1c2ccccc2C(=O)N1c1cc(C(Cl)(Cl)Cl)ccn1 ... 143 °C
CCC=Cc1ncc(/C=C(\Cc2cccs2)C(=O)O)n1Cc1ccccc1Cl ... 224 to 226 °C
O=C1c2cc(Br)cc(Br)c2CCC1n1ccnc1 (configuration not stated) ... 180 to 184 °C

Memo: CNC(=S)Nc1c(C)cccc1N1CCOCC1 , reported melting point: 182 to 183 °C

Given item C[Si]1(C(CN)CC(=O)O)CCCCC1 (configuration not stated) , the value recorded as its melting point is 160 to 162 °C

O=C1CCC(c2ccccc2)(c2ccccc2)[C@@H]2CN(Cc3ccccc3)C[C@H]12 (racemic) yielded melting point of 132 °C

Entry CN1C(=O)[C@@H](NC(=O)CCC2CCCCC2)C[C@@H](c2ccccc2)c2ccccc21 (relative stereo) ; melting point = 156 to 158 °C

###

melting point for assorted molecules

CN(C(=O)C(F)(F)F)C1Cc2ccc(C(=O)CCl)cc2C1 (configuration not stated) ... 130 to 131 °C
COc1ccccc1NC(=O)Nc1nc(NCCC(=O)O)nc(Nc2ccccc2-c2ccccc2)n1 ... 196 to 205 °C
CCOC(=O)CNCc1c(N)ccc(N2CCCC2)c1Cl ... 69 to 70 °C
Oc1ccc2cc(-c3nc(-c4ccccc4)sc3Br)ccc2c1Br ... 198 to 200 °C
OCC1OC(n2c(C(F)(F)F)nc3c(Cl)cc(Cl)cc32)C(O)C1O (configuration not stated) ... 162 °C

Entry under test: O=C(O)CCSC(SCCC(=O)O)c1cccc(CCc2ccc3ccc(Cl)cc3n2)c1 . Its melting point was 160 to 161 °C

Record CCc1cc2c(Sc3ccc(C)cc3)ncnc2s1 . Reported melting point: 56 to 58 °C

###

readout.name: melting point

Cc1cc(-c2ccnn2-c2ccc(S(N)(=O)=O)c(F)c2C(F)F)ccc1-c1cscn1 ... 204 °C

For reference, reported melting point for CCOc1ccc(N2CCN(Cc3c[nH]c4ncccc34)CC2)cc1 stands at 179 to 180 °C

Measured melting point, O=C1N[C@H](CCl)[C@@H]1N1C(=O)c2ccccc2C1=O (relative stereo) : 172 °C

According to the records, this molecule COc1ccc(C(=O)N2C(=O)CCC2CCC(=O)OCc2ccccc2)cc1OCc1ccccc1 (centres undefined) displays melting point of 92 to 95 °C

// recorded melting point for COc1ccc(-c2cc(C(O)C(F)(F)F)[nH]c2-c2ccc(OC)cc2)cc1 (centres undefined) : 84 to 86 °C

###

readout.name: melting point

COc1cc(SCc2sc(-c3ccc(C(F)(F)F)cc3)nc2C)c(C)cc1OCC(=O)O ... 165 to 167 °C
CCOC(=O)c1c(OCN2C(=O)c3c(C(C)C)cc(OC)cc3S2(=O)=O)nc2ncccn2c1=O ... 189 to 191 °C
CCOC(=O)CS(=O)(=O)C=C1SC=CS1 ... 134 to 136 °C
Cc1cc(C)c2c(c1)OS(=O)(=O)C(=Cc1ccc(N(C)C)cc1)C2=O ... 214 to 217 °C
O=C1CCc2cc(Br)ccc2O1 ... 103 to 105 °C
CCNC(=S)c1c(Cl)cccc1[Si](C)(C)C ... 158 to 159 °C
Cc1cc(O)ccc1Oc1ccccc1 ... 96 to 99 °C
COc1ccc(Br)cc1OCc1ccccc1 ... 70 to 71 °C

Per the records, this compound ( COc1cc(CC(C)=O)ccc1OCC(O)CN1CCN(c2ccccc2C)CC1 (configuration not stated) ) has melting point equal to 128 °C

Input O=C(O)C(=O)c1ccc(OCCc2ccccc2)cc1 . Output melting point: 72 to 73 °C

Record NC(C(=O)O)C(=CF)c1c[nH]c2ccc(O)cc12 (configuration not stated) . Reported melting point: > 250 °C

// melting point lookup, compound = CC(=O)Nc1ccc(Sc2cccn3nc(Nc4ccc(C5CCN(C(=O)OC(C)(C)C)CC5)cc4)nc23)cc1 , result: 226 to 228 °C

Kindly note the recorded melting point for Oc1cccc2c1OCCCO2 , which is 112 to 114 °C

Please fill in: melting point reported for C=Cc1cccc(C(OS(=O)(=O)c2ccc(Cl)cc2)(C(F)(F)F)C(F)(F)F)c1 = 70 °C
